Overview of reported Activity, No BP, DF-500000 across a group of binders:
assay target: T1, IL-18 receptors on HEK-Blue IL-18 reporter cells (UniProt Q13478 19-541; O95256 20-599, limits assumed); further: unit not given here
T1 sequence (looked up) 1: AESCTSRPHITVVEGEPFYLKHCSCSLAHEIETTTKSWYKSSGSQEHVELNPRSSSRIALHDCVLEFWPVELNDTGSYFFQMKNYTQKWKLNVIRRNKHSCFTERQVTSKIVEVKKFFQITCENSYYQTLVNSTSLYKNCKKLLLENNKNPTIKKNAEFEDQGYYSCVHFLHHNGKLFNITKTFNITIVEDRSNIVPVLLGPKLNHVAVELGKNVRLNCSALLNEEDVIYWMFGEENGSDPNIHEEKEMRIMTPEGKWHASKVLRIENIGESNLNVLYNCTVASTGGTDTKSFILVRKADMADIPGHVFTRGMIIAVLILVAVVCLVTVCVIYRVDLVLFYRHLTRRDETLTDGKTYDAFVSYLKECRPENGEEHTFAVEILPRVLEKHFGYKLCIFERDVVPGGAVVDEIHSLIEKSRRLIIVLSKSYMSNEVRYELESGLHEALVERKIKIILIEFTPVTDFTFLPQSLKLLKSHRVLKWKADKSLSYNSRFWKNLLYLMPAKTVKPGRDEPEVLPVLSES
T1 sequence (looked up) 2: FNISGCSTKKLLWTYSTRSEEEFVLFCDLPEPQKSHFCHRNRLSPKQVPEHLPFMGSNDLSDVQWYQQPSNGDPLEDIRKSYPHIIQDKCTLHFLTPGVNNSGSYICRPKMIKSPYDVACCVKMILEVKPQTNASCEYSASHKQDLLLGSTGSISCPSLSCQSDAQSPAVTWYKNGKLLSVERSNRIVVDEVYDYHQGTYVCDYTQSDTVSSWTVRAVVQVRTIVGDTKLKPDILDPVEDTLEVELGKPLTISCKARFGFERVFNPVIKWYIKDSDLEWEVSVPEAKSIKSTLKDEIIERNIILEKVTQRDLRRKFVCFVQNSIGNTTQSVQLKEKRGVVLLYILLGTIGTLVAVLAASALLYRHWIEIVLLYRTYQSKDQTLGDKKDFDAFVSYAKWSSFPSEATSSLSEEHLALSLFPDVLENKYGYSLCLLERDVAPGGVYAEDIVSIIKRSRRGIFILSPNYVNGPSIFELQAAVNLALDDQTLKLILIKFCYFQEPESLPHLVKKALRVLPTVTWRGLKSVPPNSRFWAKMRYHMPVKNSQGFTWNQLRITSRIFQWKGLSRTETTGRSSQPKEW
run description: cell-based or functional assay
measured attribute: Activity, No BP, DF-500000

| binder | measured attribute | readout number |
| --- | --- | --- |
| IL-18 variant G3P, E6S, K53N, D54Y, S55P, T63I, N91K, R104H (ligand) YFPKLSSKLSVIRNLNDQVLFIDQGNRPLFEDMTDSDMRDNAPRTIFIISMYNYPQPRGMAVIISVKSEKISTLSSENKIISFKEMNPPDKIKDTKSDIIFFQHSVPGHDNKMQFESSSYEGYFLASEKERDLFKLILKKEDELGDRSIMFTVQNED | Activity, No BP, DF-500000 | 0.07 |
| IL-18 variant G3Q, E6Q, K53T, D54W, S55F, N91Y (ligand) YFQKLQSKLSVIRNLNDQVLFIDQGNRPLFEDMTDSDMRDNAPRTIFIISMYTWFQPRGMAVTISVKSEKISTLSSENKIISFKEMNPPDYIKDTKSDIIFFQRSVPGHDNKMQFESSSYEGYFLASEKERDLFKLILKKEDELGDRSIMFTVQNED | Activity, No BP, DF-500000 | 0.54 |
| IL-18 variant G3P, E6K, K53M, D54W, S55N, T63S, N91I (ligand) YFPKLKSKLSVIRNLNDQVLFIDQGNRPLFEDMTDSDMRDNAPRTIFIISMYMWNQPRGMAVSISVKSEKISTLSSENKIISFKEMNPPDIIKDTKSDIIFFQRSVPGHDNKMQFESSSYEGYFLASEKERDLFKLILKKEDELGDRSIMFTVQNED | Activity, No BP, DF-500000 | 0.21 |
